assay: Pharmacokinetics of BH4 and BH4 analogs given by oral gavage to monkeys; type: in vivo; conditions: fasted cynomolgus monkeys, equivalent of 80 mg of BH4, n=3, standard deviation in parenthesis
Where a name gives a salt, the structure may show the parent alone.
Entries annotated with measured Tmax

Compound: C[C@H](O)[C@H](O)[C@H]1CNc2nc(N)[nH]c(=O)c2N1C(=O)[C@@H]1CCCN1 (stereo in doubt) [Example 16, dihydrochloride]
Tmax: 6.0 (0)^ hr

Compound: C[C@H](OC(=O)[C@@H]1CCCN1)[C@H](O)[C@H]1CNc2nc(N)[nH]c(=O)c2N1 [Example 9, dihydrochloride]
Tmax: 2.0 (0)^ hr

Compound: C[C@H](O)[C@H](O)[C@H]1CNc2nc(N)[nH]c(=O)c2N1C(=O)[C@@H](N)CCCCN (stereo in doubt) [Example 15, dihydrochloride]
Tmax: 12.0 (10.4) hr

Compound: C[C@H](OC(=O)[C@@H](N)CCCCN)[C@H](OC(=O)[C@@H](N)CCCCN)[C@H]1CNc2nc(N)[nH]c(=O)c2N1
Tmax: 1.5 (0.09) hr

Consider the additional compound presented here.
# compound C[C@H](O)[C@H](O)[C@H]1CNc2nc(N)[nH]c(=O)c2N1 [BH4, Tetrahydrobiopterin] ; its Tmax = 3.0 (0)^ hr

====

Assay: Pharmacokinetics of BH4 and BH4 analogs given by oral gavage to monkeys
Type: in vivo
Conditions: fasted cynomolgus monkeys, equivalent of 80 mg of BH4, n=3, plasma over 25 hours, standard deviation in parenthesis
Description: Fasted cynomolgus monkeys were given BH4 and BH4 analogs by oral gavage (n=3), such that the amount of the analog administered was the equivalent of 80 mg of BH4. The plasma concentrations of the BH4, when administered directly, or the analogs was measured at various time points over a 25 hour period. The PK data is also shown in the following table, wherein the number in parenthesis is the standard deviation.
Counter-ions that a name gives are not always drawn.
Endpoint: AUC0-t

Answered cases to consult:
Compound: CC(C)[C@H](N)C(=O)O[C@@H]([C@H](C)OC(=O)[C@@H](N)C(C)C)[C@H]1CNc2nc(N)[nH]c(=O)c2N1 [Example 10, trihydrochloride]
AUC0-t: 625 (294) ng hr/mL
--
Compound: C[C@H](OC(=O)[C@@H]1CCCN1)[C@H](O)[C@H]1CNc2nc(N)[nH]c(=O)c2N1 [Example 9, dihydrochloride]
AUC0-t: 384 (214) ng hr/mL
--
Compound: C[C@H](O)[C@H](O)[C@H]1CNc2nc(N)[nH]c(=O)c2N1C(=O)[C@@H](N)CCCCN (stereo in doubt) [Example 15, dihydrochloride]
AUC0-t: 36.8 (37.6) ng hr/mL

Just so you know, measured AUC0-t for CC[C@H](C)[C@H](N)C(=O)N1c2c(nc(N)[nH]c2=O)NC[C@@H]1[C@@H](O)[C@H](C)O (stereo in doubt) [Example 14, hydrochloride] came out at 63.2 (25.6) ng hr/mL

# AUC0-t of C[C@H](O)[C@H](O)[C@H]1CNc2nc(N)[nH]c(=O)c2N1 [BH4, Tetrahydrobiopterin] = 288 (15.5) ng hr/mL

Input C[C@H](OC(=O)[C@@H](N)CCCCN)[C@H](OC(=O)[C@@H](N)CCCCN)[C@H]1CNc2nc(N)[nH]c(=O)c2N1 [Example 11] . Output AUC0-t: 617 (336) ng hr/mL

The compound listed as C[C@H](OC(=O)[C@@H](N)CCCCN)[C@H](O)[C@H]1CNc2nc(N)[nH]c(=O)c2N1 [Example 7, tri-hydrochloride] has a reported AUC0-t of 572 (148) ng hr/mL

Value of measured AUC0-t for the entry C[C@H](O)[C@H](O)[C@H]1CNc2nc(N)[nH]c(=O)c2N1C(=O)[C@@H]1CCCN1 (stereo in doubt) [Example 16, dihydrochloride] : 88.1 (31.5) ng hr/mL

# AUC0-t of C[C@H](OC(=O)[C@@H]1CCCN1)[C@H](OC(=O)[C@@H]1CCCN1)[C@H]1CNc2nc(N)[nH]c(=O)c2N1 [Example 12, trihydrochloride] = 438 (211) ng hr/mL

# compound CC(C)[C@H](N)C(=O)N1c2c(nc(N)[nH]c2=O)NC[C@@H]1[C@@H](O)[C@H](C)O (stereo in doubt) [Example 13, hydrochloride] ; its AUC0-t = 13.7 ng·h/mL

====

assay: Pharmacokinetics of BH4 and BH4 analogs given by oral gavage to monkeys; format: in vivo; conditions: fasted cynomolgus monkeys, equivalent of 80 mg of BH4, n=3, plasma over 25 hours, standard deviation in parenthesis
Where a name gives a salt, the structure may show the parent alone.
# key: entry, value: Cmax

Below, each entry is followed by its recorded Cmax result.
Compound: CC(C)[C@H](N)C(=O)O[C@@H]([C@H](C)OC(=O)[C@@H](N)C(C)C)[C@H]1CNc2nc(N)[nH]c(=O)c2N1 [Example 10, trihydrochloride]
Assay Result: 138 (123) ng/mL
--
Compound: C[C@H](OC(=O)[C@@H](N)CCCCN)[C@H](O)[C@H]1CNc2nc(N)[nH]c(=O)c2N1 [Example 7, tri-hydrochloride]
Assay Result: 82.3 (27.2) ng/mL
--
Compound: C[C@H](OC(=O)[C@@H]1CCCN1)[C@H](O)[C@H]1CNc2nc(N)[nH]c(=O)c2N1 [Example 9, dihydrochloride]
Assay Result: 61.9 (34.8) ng/mL
--
Compound: C[C@H](OC(=O)[C@@H]1CCCN1)[C@H](OC(=O)[C@@H]1CCCN1)[C@H]1CNc2nc(N)[nH]c(=O)c2N1 [Example 12, trihydrochloride]
Assay Result: 73.6 (42.9) ng/mL
--
Compound: C[C@H](O)[C@H](O)[C@H]1CNc2nc(N)[nH]c(=O)c2N1C(=O)[C@@H](N)CCCCN (stereo in doubt) [Example 15, dihydrochloride]
Assay Result: 5.7 (1.7) ng/mL
--
Compound: CC[C@H](C)[C@H](N)C(=O)N1c2c(nc(N)[nH]c2=O)NC[C@@H]1[C@@H](O)[C@H](C)O (stereo in doubt) [Example 14, hydrochloride]
Assay Result: 5.23 (2.1) ng/mL
--
Compound: C[C@H](OC(=O)[C@@H](N)CCCCN)[C@H](OC(=O)[C@@H](N)CCCCN)[C@H]1CNc2nc(N)[nH]c(=O)c2N1
Assay Result: 115 (65.4) ng/mL
--
Compound: C[C@H](O)[C@H](O)[C@H]1CNc2nc(N)[nH]c(=O)c2N1 [BH4, Tetrahydrobiopterin]
Assay Result: 42.0 (12.6) ng/mL

The value of Cmax measured for the compound CC(C)[C@H](N)C(=O)N1c2c(nc(N)[nH]c2=O)NC[C@@H]1[C@@H](O)[C@H](C)O (stereo in doubt) [Example 13, hydrochloride] turned out to be 2.2 ng/mL

Recorded result, C[C@H](O)[C@H](O)[C@H]1CNc2nc(N)[nH]c(=O)c2N1C(=O)[C@@H]1CCCN1 (stereo in doubt) [Example 16, dihydrochloride] , Cmax: 7.63 (2.7) ng/mL

====

experiment: Pharmacokinetics of BH4 and BH4 analogs given by oral gavage to monkeys; type: in vivo; details: fasted cynomolgus monkeys, equivalent of 80 mg of BH4, n=3, standard deviation in parenthesis
Where a name gives a salt, the structure may show the parent alone.
// reported Tmax per item

Use the examples below as a reference point.
Compound: CC(C)[C@H](N)C(=O)N1c2c(nc(N)[nH]c2=O)NC[C@@H]1[C@@H](O)[C@H](C)O (stereo in doubt) [Example 13, hydrochloride]
Tmax: 6.0 h

Compound: C[C@H](OC(=O)[C@@H]1CCCN1)[C@H](OC(=O)[C@@H]1CCCN1)[C@H]1CNc2nc(N)[nH]c(=O)c2N1 [Example 12, trihydrochloride]
Tmax: 3.0 (1.0) hr

Lab note: CC[C@H](C)[C@H](N)C(=O)N1c2c(nc(N)[nH]c2=O)NC[C@@H]1[C@@H](O)[C@H](C)O (stereo in doubt) [Example 14, hydrochloride] gave Tmax of 12.1 (11.9) hr
